Quick reference: ratio of amounts bound (Z=Y/X) of the listed items.
- Measured On: T1, CD3 epsilon homodimer protein (UniProt P07766 23-126)
- T1 construct: also called CD3 (CD3 epsilon)
- Assay Name: SPR Biacore T200, CD3e homodimer on chip, vs unaltered GLS3000 antibody

{"Binder": "GLS3000 R54S (antibody, name in Kabat numbering, V domains shown, one-arm IgG as m2) VH: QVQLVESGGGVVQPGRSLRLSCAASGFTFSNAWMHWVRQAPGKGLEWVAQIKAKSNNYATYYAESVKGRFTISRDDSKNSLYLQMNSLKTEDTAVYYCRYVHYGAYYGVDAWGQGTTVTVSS VL: DIVMTQSPLSLPVTPGEPASISCRSSQSLVHSNRNTYLHWYQQKPGQAPRLLIYKVSNSFSGVPDRFSGSGSGTDFTLKISRVEAEDVGVYYCGQGTQVPYTFGQGTKLEIK", "ratio of amounts bound (Z=Y/X)": 0.79}
{"Binder": "GLS3000 V51I (antibody, name in Kabat numbering, V domains shown, one-arm IgG as m2) VH: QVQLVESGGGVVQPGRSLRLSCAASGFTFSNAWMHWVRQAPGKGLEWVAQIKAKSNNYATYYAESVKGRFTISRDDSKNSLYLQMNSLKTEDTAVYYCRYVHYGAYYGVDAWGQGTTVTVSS VL: DIVMTQSPLSLPVTPGEPASISCRSSQSLVHSNRNTYLHWYQQKPGQAPRLLIYKISNRFSGVPDRFSGSGSGTDFTLKISRVEAEDVGVYYCGQGTQVPYTFGQGTKLEIK", "ratio of amounts bound (Z=Y/X)": 0.81}
{"Binder": "GLS3000 S27eY (antibody, name in Kabat numbering, V domains shown, one-arm IgG as m2) VH: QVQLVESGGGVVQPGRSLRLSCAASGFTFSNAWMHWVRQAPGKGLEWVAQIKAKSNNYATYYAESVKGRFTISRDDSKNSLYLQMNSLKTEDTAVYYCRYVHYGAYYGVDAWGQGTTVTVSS VL: DIVMTQSPLSLPVTPGEPASISCRSSQSLVHYNRNTYLHWYQQKPGQAPRLLIYKVSNRFSGVPDRFSGSGSGTDFTLKISRVEAEDVGVYYCGQGTQVPYTFGQGTKLEIK", "ratio of amounts bound (Z=Y/X)": 1.2}
{"Binder": "GLS3000 S25A (antibody, name in Kabat numbering, V domains shown, one-arm IgG as m2) VH: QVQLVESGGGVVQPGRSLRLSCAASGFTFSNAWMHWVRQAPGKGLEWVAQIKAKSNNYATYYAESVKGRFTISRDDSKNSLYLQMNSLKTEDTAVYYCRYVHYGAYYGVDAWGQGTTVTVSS VL: DIVMTQSPLSLPVTPGEPASISCRASQSLVHSNRNTYLHWYQQKPGQAPRLLIYKVSNRFSGVPDRFSGSGSGTDFTLKISRVEAEDVGVYYCGQGTQVPYTFGQGTKLEIK", "ratio of amounts bound (Z=Y/X)": 0.92}
